Data origin: patent US20130230533A1

Target: T1, Monomeric human CD48-mmH (human)
T1 chain: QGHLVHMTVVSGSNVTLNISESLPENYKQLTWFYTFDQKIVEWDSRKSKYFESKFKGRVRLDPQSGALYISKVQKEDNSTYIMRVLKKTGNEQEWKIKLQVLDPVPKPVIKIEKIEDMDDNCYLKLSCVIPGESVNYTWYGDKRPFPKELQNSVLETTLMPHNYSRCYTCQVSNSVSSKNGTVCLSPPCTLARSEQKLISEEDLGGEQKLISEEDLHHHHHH
Assay: SPR (Biacore), antibody captured by anti-Fc, CD48 in solution, 37 C
measure.name: koff (s⁻¹)
Report only the number, with the unit s⁻¹ understood.

Sample answers from the record:
H4H1772P (antibody, human IgG4, V domains shown, Human IgG4 Fc (H4H)) VH: EVQLVESGGGLVQPGGSLRLSCAASGFTFSSYWMSWVRQAPGKGLEWVANIMRDGSEKYYVDSVKGRFTISRDNAKNSLYLQMNSLRGEDTAVYYCARERGFYTNYGNWFDPWGQGTLVTVSS VL: DIVMTQSPLSLTVTPGESASISCRSSQSLLHSYGYNSLDWYLQKPGQSPQFLIYLVSNRASGVPDRFSGSGSGTDFTLKISRVEAEDVGVYYCMQVLQTPYTFGQGTKLEIK: 0.00102
H3M1766N (antibody, V domains shown, Human variable domains, mouse Fc (H3M); also called H2M1766N) VH: EVQLVESGGGLAQPGGSLRLSCAASGFTFSSYEMNWVRQAPGKGLEWVSYITTSGSTIYYADSVKGRFTMSRDNAKKSLYLEMNSLRAEDTAVYYCAREECTNGVCYKDYQYYGMDVWGQGTTVTVSS VL: DIQMTQSPSSVSASVGDRVTITCRASQNINTWLAWYQQKPGKVPKLLIYAASSLQSGVPSRFSGSGSGTDFTLTISSLQPEDFATYYCQQANSFPLTFGGGTKVEIK: 0.00062

Field: next binder
Prompt: Give reported koff value for H4H1779P (antibody, human IgG4, V domains shown, Human IgG4 Fc (H4H)) VH: QVQLVESGGGVVQPGRSLRLSCAASGFTFSNYGMHWVRQAPGKGLEWVAVIWYDESSKHYADSVKGRFTISRDNSQNTLYLQMTSLRAEDTAVYYCARDRWTYSHYFEYWGQGTLVTVSS VL: DIQMTQSPSSVSASVGDRVTITCRASQDISSWVAWYQQKPGKAPKLLIYAASSLQSGVPSRFSGSGSGTDFTLTISSLQPEDFATYYCQQANSFPRTFGQGTKVEIK
Completion: 0.000102
